test system: TK-10; assay: NCI 60-cell drug screen, Renal Cancer TK-10; format: cell-based, human; conditions: 1.00E−5 Molar
Outcome label depends on Growth Percent, TK-10 relative to 40%: at/above gives 1, below gives 0.

See these solved cases before continuing.
INSERT INTO measurements (smiles_code, assigned_class) VALUES
  ('O=C1c2ccccc2C(=O)c2c1ccc1nc(SCCN3CCCC3)[nH]c21', 0),
  ('O=C1c2ccccc2C(=O)c2c1ccc1nc(S)[nH]c21', 1),
  ('CN(C)CCCSc1nc2ccc3c(c2[nH]1)C(=O)c1ccccc1C3=O', 0),
  ('CCCSc1nc2ccc3c(c2[nH]1)C(=O)c1ccccc1C3=O', 0),
  ('O=C1c2ccccc2C(=O)c2c1ccc1nc3n(c21)CCS3', 1);

*Q* Does CCSc1nc2ccc3c(c2[nH]1)C(=O)c1ccccc1C3=O have a reported Growth Percent, TK-10 of at least 40%?
*A* 1
